Tested on: M14
Protocol notes: NCI tumour cell line growth inhibition, 48 h
Calls of active or inactive are those of the source. Rule as the data show it: active = GI50 up to about 1.1 µM and inactive = higher.
Parameter measured: GI50

| Molecule | Result |
| --- | --- |
| O=C1CC(c2ccc(Cl)cc2)=Nc2ccccc2N1 | > 100 µM (inactive) |
| CC1C2(C)OC(=N)C(C#N)(C(c3ccccc3)O2)C1(C#N)C#N (stereo unspecified) | 13.9 µM (inactive) |
| Cc1ncn(-c2ccccc2O)c1C | > 100 µM (inactive) |
| CC(=O)C(CN(Cc1ccccc1)Cc1ccccc1)C(c1ccccc1)c1c(O)c2ccccc2oc1=O (stereo unspecified) | > 100 µM (inactive) |
| CC(=O)OC1COC(N2C(=O)C(=O)c3cc(Br)ccc32)C(OC(C)=O)C1OC(C)=O (stereo unspecified) | > 100 µM (inactive) |
| COC(=O)C1CCc2c(OC)ccc(OC)c2C1=O (stereo unspecified) | > 100 µM (inactive) |
| COC(CN1C(=O)c2cccc3cccc(c23)C1=O)OC | > 100 µM (inactive) |
| COc1ccc2[nH]c3c(c2c1)[C@H](c1ccccc1)C[C@@H]1C(=O)N(c2ccccc2)C(=O)[C@H]31 | 42.3 µM (inactive) |
| CC1=C(C(=O)OC2CC3CCC2(C)C3(C)C)C2Nc3ccccc3N(C)C2O1 (stereo unspecified) | 1.63 µM (inactive) |
| C[C@H]1SC(c2ccc(Cl)cc2Cl)N(NC(=O)c2ccncc2)C1=O (stereo partly specified) | 21.8 µM (inactive) |
| C=CC(=C)CCC(Br)C(C)(C)Cl (stereo unspecified) | > 100 µM (inactive) |

====

Tested on: T47D
Protocol notes: NCI tumour cell line growth inhibition, 48 h
The source made the active and inactive calls. No stated cut-off is given here; in the data, active = GI50 up to about 1.1 µM and inactive = higher.
Let's look at some compounds and their measured GI50.

| Compound | GI50 |
| --- | --- |
| Nc1ncnc2c1ncn2CCCNO | > 100 µM (inactive) |
| CC1(C)OCC(C2OC(N3O[C@H](CI)C[C@@H]3c3ccccc3)C3OC(C)(C)OC23)O1 (some centres not stated) | > 100 µM (inactive) |
| COc1ccc2c(C(=O)c3cn(CCN4CCOCC4)c4ccccc34)cccc2c1 | 38 µM (inactive) |
| O=C1CC(=O)c2c(Cl)sc(Cl)c21 | > 100 µM (inactive) |
| COC(=O)c1c(C)nc(C)c(N=O)c1-c1ccccc1C(F)(F)F | 17.3 µM (inactive) |
| C=CCN(CCN(CC=C)S(=O)(=O)c1ccc(C)cc1)S(=O)(=O)c1ccc(C)cc1 | > 100 µM (inactive) |
| CC(C)(C(=O)NN)c1ccccc1 | > 100 µM (inactive) |
| CN(C)CCCNC(=O)c1cc(NS(=O)(=O)c2ccc3c(c2)C(=O)c2ccccc2C3=O)cn1C | 35.2 µM (inactive) |
| CC(=O)NCc1nc(C#N)c(N)o1 | > 100 µM (inactive) |
| Cc1ccc(S(=O)(=O)NC2=NS(=O)(=O)c3cc(C)c(Cl)cc3S2)cc1 | 70.1 µM (inactive) |
| CC1=NN(c2nc(N)nc(/C(C#N)=C/c3ccncc3)n2)C(C)(C)C1 | > 100 µM (inactive) |
| N#CC(C#N)=NNc1ccc2cn[nH]c2c1 | 35.7 µM (inactive) |

====

# maps each entry to its GI50
Test system: NCI-H460
Protocol notes: NCI tumour cell line growth inhibition, 48 h
Activity calls are given as the source filed them. No stated cut-off is given here; in the data, active = GI50 up to about 1.1 µM and inactive = higher. Where a SMILES comes first, the peptide text is derived from it. [ ]: non-standard residue; d: D form. The star is where a group is joined. Phe(4-NO2) = N[CH](Cc1ccc([N+](=O)[O-])cc1)C(=O)O; Boc = CC(C)(C)OC(=O)*; OBn = c1ccc(CO*)cc1
Parameter measured: GI50

| Compound | Parameter measured | Result |
| --- | --- | --- |
| O=C(Nc1ccc(Cl)c(Cl)c1)N1N=C2c3ccccc3CCC2C1c1ccc(Cl)cc1 (stereo unspecified) | GI50 | > 100 µM (inactive) |
| COC1(OC)CCCCC2c3cccc(OC(C)=O)c3C21OC(C)=O (stereo unspecified) | GI50 | > 10 µM (inactive) |
| CN1CSC(=S)N(c2cccc(C(F)(F)F)c2)C1 | GI50 | 20.2 µM (inactive) |
| C/C=C\C(CC(=O)OC)CC(=O)N(CCC1CN(S(=O)(=O)C(F)(F)F)c2ccccc21)Cc1ccc(OC)cc1OC (stereo unspecified) | GI50 | 73.1 µM (inactive) |
| CN1C(=O)CC(CC(=O)C2CCCCC2=O)CC1=O (stereo unspecified) | GI50 | > 100 µM (inactive) |
| COc1cc2c(c(O)c1OC)C(=O)[C@@H]1CCC(=O)N1C2c1ccccc1 (stereo partly specified) | GI50 | > 100 µM (inactive) |
| C[N+]1=C(c2cccnc2/C=N/O)OCC1(C)C | GI50 | > 100 µM (inactive) |
| CN(C)CCCSc1nc2c(c(=N)n1-c1ccccc1)c(=S)n(-c1ccccc1)c(=S)n2-c1ccccc1 | GI50 | 1.82 µM (inactive) |
| C=CCN(CCN(CC=C)S(=O)(=O)c1ccc(C)cc1)S(=O)(=O)c1ccc(C)cc1 | GI50 | > 100 µM (inactive) |
| Cc1cc(-c2c(Br)cc(C(=O)O)n2C)on1 | GI50 | > 100 µM (inactive) |
| C=C(Br)CNCC(=C)Br | GI50 | > 100 µM (inactive) |
| S=C(Nc1ccc(Cl)cc1)SC1CCCCC1 | GI50 | 28.4 µM (inactive) |
| Cc1c(/N=C/C=C/c2ccccc2)c(=O)n(-c2ccccc2)n1C | GI50 | 87.5 µM (inactive) |
| COC(=O)CCC(NC(=O)OC(C)(C)C)C(=O)NC(Cc1ccc([N+](=O)[O-])cc1)C(=O)NCC(=O)OCc1ccccc1 (stereo unspecified) (Boc-Glu(OMe)-[Phe(4-NO2)]-Gly-OBn; configuration not given here) | GI50 | > 100 µM (inactive) |
| O=C(O)c1ccc(Oc2nc3ccccc3s2)cc1 | GI50 | > 100 µM (inactive) |
| O=C(CN(c1ccccc1)c1ccccc1)N1c2ccccc2C2C=CC=CC21 (stereo unspecified) | GI50 | 19.3 µM (inactive) |
| CCCCCCCCC/C=C1\CCC(CN(C)C)C1=O (stereo unspecified) | GI50 | 3.43 µM (inactive) |
| COc1cc(C2=C(C#N)C(N)OC3=C2COc2ccccc23)cc(OC)c1OC (stereo unspecified) | GI50 | 19.4 µM (inactive) |
| CN(C)S(=O)(=O)c1ccc(Nc2ccc(O)c3c2C(=O)c2c([N+](=O)[O-])ccc(O)c2C3=O)cc1 | GI50 | > 100 µM (inactive) |
| O=C(O)CSc1nnc(COc2ccccc2)n1-c1ccccc1 | GI50 | > 100 µM (inactive) |
| CCOC(=O)NC(Nc1ccc(S(=O)(=O)Nc2ccc(OC)nn2)cc1)(C(F)(F)F)C(F)(F)F | GI50 | 41.6 µM (inactive) |
